experimentalTarget: T1, Human CD44v6 iso4-Fc (human, UniProt P16070-4 21-606, limits assumed, chemically biotinylated in the form called Bio-CD44v6)
T1 construct: Custom ordered from ProMab, produced in HKB11 cells; The biotinylated and the plain form are kept as one molecule; also called Bio-CD44v6; bio-CD44v6
T1 sequence (P16070 other isoform, or with tags, fused parts or gaps limits assumed): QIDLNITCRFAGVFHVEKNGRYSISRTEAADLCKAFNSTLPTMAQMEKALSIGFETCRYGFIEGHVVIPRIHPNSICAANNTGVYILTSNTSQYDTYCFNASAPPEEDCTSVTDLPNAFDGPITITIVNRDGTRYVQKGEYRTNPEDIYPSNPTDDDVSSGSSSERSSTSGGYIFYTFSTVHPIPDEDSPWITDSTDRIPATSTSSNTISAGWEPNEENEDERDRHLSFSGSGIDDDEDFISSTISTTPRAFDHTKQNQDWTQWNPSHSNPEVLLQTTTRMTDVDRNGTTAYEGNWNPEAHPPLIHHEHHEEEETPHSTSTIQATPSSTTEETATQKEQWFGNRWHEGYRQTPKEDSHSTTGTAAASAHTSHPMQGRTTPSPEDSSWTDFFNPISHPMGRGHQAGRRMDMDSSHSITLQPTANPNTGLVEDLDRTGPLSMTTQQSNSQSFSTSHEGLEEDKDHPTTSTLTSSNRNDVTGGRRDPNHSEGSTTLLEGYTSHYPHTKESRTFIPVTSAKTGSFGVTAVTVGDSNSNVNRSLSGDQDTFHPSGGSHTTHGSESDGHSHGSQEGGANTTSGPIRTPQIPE
assayMethodText: SPR SCK, antibody immobilised, CD44v6-Fc injected
valueType: kon (M⁻¹ s⁻¹)

1) AL-MN114-444 IgG1 LALA IAHA (antibody, V domains shown, Human IgG1 LALA IAHA, kappa) VH: EVQLLESGGGLVQPGGSLRLSCAASGFTFRSFAMSWVRQAPGKGLEWVSAISGGGSSTFYADSVKGRFTISRDNSKNTLYLQMNSLRAEDTAVYYCARHYYSDSDYRSSAAMDYWGQGTLVTVSS VL: DIQMTQSPSSLSASVGDRVTITCRASQSIGSYLNWYQQKPGKAPKLLIYSASSLQSGVPSRFSGSGSGTDFTLTISSLQPEDFATYYCQQDLYLLTFGQGTKLEIK :: 320000

Each recorded value in this set is attributed to patent US20250340662A1.
